Target: MAL^TIR (Homo sapiens, UniProt P58753)
Construct: MAL (residues 79–221); 6xHis; made in house; host or cells: E. coli BL21 (DE3)
Sequence (P58753 79-221): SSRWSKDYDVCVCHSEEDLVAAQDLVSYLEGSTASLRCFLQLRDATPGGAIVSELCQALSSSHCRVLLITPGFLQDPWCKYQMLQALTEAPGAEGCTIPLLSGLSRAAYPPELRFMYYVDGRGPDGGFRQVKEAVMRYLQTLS
Assay: T‐Surf phage library (P8 and P3) selection against MAL^TIR, four rounds, NGS read counts
Format: binding
Details: P3 library, selection against MAL TIR; rank by count before grouping
test-readout: P3_MAL Rank (before)

// worked examples, P3_MAL Rank (before) included
>  <residue-sequence>
RGFLSHLRNHLQAKDP

>  <P3_MAL Rank (before)>
2408

$$$$
>  <residue-sequence>
NQWRNALTAPANLSGR

>  <P3_MAL Rank (before)>
3389

$$$$
>  <residue-sequence>
RLLKWKEALHQFIAG

>  <P3_MAL Rank (before)>
2518

$$$$
>  <residue-sequence>
NQWRNALTAAANLSDR

>  <P3_MAL Rank (before)>
3379

$$$$
>  <residue-sequence>
KWFWDKLIYPLSRNPQ

>  <P3_MAL Rank (before)>
3510

$$$$

I = RLLNWKEARHQFHSWV
II = YAFTGHLHRYHLPAPQH
III = KEVDGWRDALTQVASL
IV = KEVEGWRDALPHRYEP
V = VRHSFAGYRYDALNRL
Number of sequences to sort: 5. Sort criterion: P3_MAL Rank (before), ascending. Answer with the labels in sequence, matching the requested order.
II, IV, V, I, III
(II: 739, IV: 1095, V: 1698, I: 2479, III: 3547)

I = LKAESWRQAPEKAGKL
II = NQWRNALPAAANLRGW
Out of I and II , name the one with the higher P3_MAL Rank (before). Which one? Tell me its label.
II
(II: 3349, I: 2306)

a = SSFREGLWRLRGLSKK
b = WQFHLRLRMHELLQKM
Lower value of P3_MAL Rank (before) belongs to which: a or b ? Which one? Tell me its label.
b
(b: 1314, a: 3160)

---

Molecular target: MyD88^TIR (Homo sapiens, UniProt Q99836)
Construct: MyD88 (residues 148–296); 6xHis; made in house; host or cells: E. coli BL21 (DE3)
Sequence (Q99836 148-296): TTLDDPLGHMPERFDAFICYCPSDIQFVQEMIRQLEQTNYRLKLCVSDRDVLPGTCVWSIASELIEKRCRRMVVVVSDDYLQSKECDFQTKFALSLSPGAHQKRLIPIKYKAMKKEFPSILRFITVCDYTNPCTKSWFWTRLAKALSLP
Experiment: T‐Surf phage library (P8 and P3) selection against MyD88^TIR, four rounds, NGS read counts
Assay type: binding
Settings: P3_MyD88: rank by count before grouping
test-readout: Rank (before)

>  <residue-sequence>
GFLYQALARDGFKIFM

>  <Rank (before)>
1811

$$$$
>  <residue-sequence>
YTALTNSGIHTLRDND

>  <Rank (before)>
1691

$$$$
>  <residue-sequence>
ESILNHMRRSSQSIAN

>  <Rank (before)>
2231

$$$$
>  <residue-sequence>
YTALNNSGFNTFRDND

>  <Rank (before)>
1704

$$$$
>  <residue-sequence>
AVDIETEKIQTPLKNA

>  <Rank (before)>
1891

$$$$

a = SSFREGLWSLLELSKN
b = DHHLDLPRGKRLNRKFW
Lower value of Rank (before) belongs to which: a or b ? Which one? Tell me its label.
b

---

Biological target: MyD88^TIR (Homo sapiens, UniProt Q99836)
Construct: MyD88 (residues 148–296); 6xHis; made in house; host or cells: E. coli BL21 (DE3)
Test: T‐Surf phage library (P8 and P3) selection against MyD88^TIR, four rounds, NGS read counts
Assay type: binding
Details: P3_MyD88 pool: P3 T-Surf phage library, 4th round of selection against MyD88 TIR, share of NGS reads
test-readout: Population (%)

>  <residue-sequence>
KMQKWKDALYEAANLSGW

>  <tested-target>
MyD88^TIR (Homo sapiens, UniProt Q99836)

>  <test-result>
0.00437

$$$$
>  <residue-sequence>
LKVESWRQALKERLP

>  <tested-target>
MyD88^TIR (Homo sapiens, UniProt Q99836)

>  <test-result>
0.00378

$$$$
>  <residue-sequence>
SSFREGLWRLLKLSKK

>  <tested-target>
MyD88^TIR (Homo sapiens, UniProt Q99836)

>  <test-result>
0.00349

$$$$
>  <residue-sequence>
KEVEGWRDALTKVATI

>  <tested-target>
MyD88^TIR (Homo sapiens, UniProt Q99836)

>  <test-result>
0.0032

$$$$
>  <residue-sequence>
NQWRNALTAAASLSGW

>  <tested-target>
MyD88^TIR (Homo sapiens, UniProt Q99836)

>  <test-result>
0.00291

$$$$
>  <residue-sequence>
SSFREGLWRLLELCKK

>  <tested-target>
MyD88^TIR (Homo sapiens, UniProt Q99836)

>  <test-result>
0.0032

$$$$
>  <residue-sequence>
SSSREGLWRLLELSKK

>  <tested-target>
MyD88^TIR (Homo sapiens, UniProt Q99836)

>  <test-result>
0.0032

$$$$
>  <residue-sequence>
SSFRESLWRLLELSKK

>  <tested-target>
MyD88^TIR (Homo sapiens, UniProt Q99836)

>  <test-result>
0.0032

$$$$
>  <residue-sequence>
SSFHEGLWRLLELSKK

>  <tested-target>
MyD88^TIR (Homo sapiens, UniProt Q99836)

>  <test-result>
0.00466

$$$$
>  <residue-sequence>
SSFREGLWRLLELGKK

>  <tested-target>
MyD88^TIR (Homo sapiens, UniProt Q99836)

>  <test-result>
0.00437

$$$$
>  <residue-sequence>
SSFREGMWRLLELSKK

>  <tested-target>
MyD88^TIR (Homo sapiens, UniProt Q99836)

>  <test-result>
0.00408

$$$$
>  <residue-sequence>
DHHLDLPRGKAIKREILG

>  <tested-target>
MyD88^TIR (Homo sapiens, UniProt Q99836)

>  <test-result>
0.00437

$$$$
>  <residue-sequence>
YTALTAAANLSGW

>  <tested-target>
MyD88^TIR (Homo sapiens, UniProt Q99836)

>  <test-result>
0.00378

$$$$
>  <residue-sequence>
EWIREQLRPALKERLP

>  <tested-target>
MyD88^TIR (Homo sapiens, UniProt Q99836)

>  <test-result>
0.00466

$$$$
>  <residue-sequence>
YAFTGHLHRYLVQRGV

>  <tested-target>
MyD88^TIR (Homo sapiens, UniProt Q99836)

>  <test-result>
0.00378

$$$$
>  <residue-sequence>
SSFRGGLWRLLELSKK

>  <tested-target>
MyD88^TIR (Homo sapiens, UniProt Q99836)

>  <test-result>
0.00349

$$$$
>  <residue-sequence>
SSFREGRWRLLELSKK

>  <tested-target>
MyD88^TIR (Homo sapiens, UniProt Q99836)

>  <test-result>
0.0032

$$$$
>  <residue-sequence>
SSFREGLRRLLELSKK

>  <tested-target>
MyD88^TIR (Homo sapiens, UniProt Q99836)

>  <test-result>
0.00291

$$$$
>  <residue-sequence>
SSFREGLWRLLELSKN

>  <tested-target>
MyD88^TIR (Homo sapiens, UniProt Q99836)

>  <test-result>
0.00349

$$$$
>  <residue-sequence>
DHHLDLPRGKAIKPEILS

>  <tested-target>
MyD88^TIR (Homo sapiens, UniProt Q99836)

>  <test-result>
0.0032

$$$$
>  <residue-sequence>
DHHLDLPRGKAIKLEILG

>  <tested-target>
MyD88^TIR (Homo sapiens, UniProt Q99836)

>  <test-result>
0.00437

$$$$
>  <residue-sequence>
LKVESWRQALEKADKL

>  <tested-target>
MyD88^TIR (Homo sapiens, UniProt Q99836)

>  <test-result>
0.00408

$$$$
>  <residue-sequence>
YAFTGHLHRYLVQRAA

>  <tested-target>
MyD88^TIR (Homo sapiens, UniProt Q99836)

>  <test-result>
0.0032

$$$$
>  <residue-sequence>
NQWRNALTAAANLA

>  <tested-target>
MyD88^TIR (Homo sapiens, UniProt Q99836)

>  <test-result>
0.00291

$$$$
>  <residue-sequence>
SSFREDLWRLLELSKK

>  <tested-target>
MyD88^TIR (Homo sapiens, UniProt Q99836)

>  <test-result>
0.00437

$$$$
>  <residue-sequence>
NQWRNALTAAANLNGW

>  <tested-target>
MyD88^TIR (Homo sapiens, UniProt Q99836)

>  <test-result>
0.00408

$$$$
>  <residue-sequence>
SSFREGLWRLLELRKK

>  <tested-target>
MyD88^TIR (Homo sapiens, UniProt Q99836)

>  <test-result>
0.0032

$$$$
>  <residue-sequence>
SSFREGLLRLLELSKK

>  <tested-target>
MyD88^TIR (Homo sapiens, UniProt Q99836)

>  <test-result>
0.0032

$$$$
>  <residue-sequence>
SSFREGPWRLLELSKK

>  <tested-target>
MyD88^TIR (Homo sapiens, UniProt Q99836)

>  <test-result>
0.00466

$$$$
>  <residue-sequence>
LKWGDPWFWDRLRFA

>  <tested-target>
MyD88^TIR (Homo sapiens, UniProt Q99836)

>  <test-result>
0.00437

$$$$
>  <residue-sequence>
DHHLDLPRGKAIKQEILG

>  <tested-target>
MyD88^TIR (Homo sapiens, UniProt Q99836)

>  <test-result>
0.00495

$$$$
>  <residue-sequence>
YLKWGDPYFWSKLRYAM

>  <tested-target>
MyD88^TIR (Homo sapiens, UniProt Q99836)

>  <test-result>
0.00466

$$$$
>  <residue-sequence>
YAFTGHLHRYLVQHGV

>  <tested-target>
MyD88^TIR (Homo sapiens, UniProt Q99836)

>  <test-result>
0.00378

$$$$
>  <residue-sequence>
LKVESWRQALGKAGKL

>  <tested-target>
MyD88^TIR (Homo sapiens, UniProt Q99836)

>  <test-result>
0.00349

$$$$
>  <residue-sequence>
SSFRVGLWRLLELSKK

>  <tested-target>
MyD88^TIR (Homo sapiens, UniProt Q99836)

>  <test-result>
0.00291

$$$$
>  <residue-sequence>
NQWRNALTAAANLSGC

>  <tested-target>
MyD88^TIR (Homo sapiens, UniProt Q99836)

>  <test-result>
0.00291

$$$$
>  <residue-sequence>
YAFTGHLHATL

>  <tested-target>
MyD88^TIR (Homo sapiens, UniProt Q99836)

>  <test-result>
0.00291

$$$$
>  <residue-sequence>
NQWRNALTAAANLV

>  <tested-target>
MyD88^TIR (Homo sapiens, UniProt Q99836)

>  <test-result>
0.00378

$$$$
